Test name: Displacement of fluorophore-labeled RIOK1 from human PRMT5 C278A mutant/WDR77 hetero octameric complex expressed in Sf9 cells by competition fluorescence polarization (FP) assay
pIC50: −log10 of the molar value.
Measured endpoint: pIC50

Query :: GET /values?readout=pIC50&item= Cc1ccc(NC(=O)Cn2ncc(Cl)c(Cl)c2=O)cc1S(=O)(=O)NCCc1ccccn1
Result :: < 4.00

---

I'd appreciate it if you could supply Stabilty values for the items below.
Test name: Stability in human plasma assessed as compound remaining relative to control; further: time not given here
Type: ADME, cell-free
Write the answer as a number in %, unit excluded.

Query :: GET /values?readout=Stabilty&item= Cc1ccc(NC(=O)Cn2ncc(Cl)c(Cl)c2=O)cc1S(=O)(=O)NCCc1cccnc1
Result :: 100

Query :: Now this one: Cc1ccc(NC(=O)[C@H](C)n2ncc(Cl)c(Cl)c2=O)cc1S(=O)(=O)NCCc1ccccn1
Result :: 92

Query :: Now this one: Cc1ncc(NC(=O)Cn2ncc(Cl)c(Cl)c2=O)cc1S(=O)(=O)N1CCCN(C)CC1
Result :: 70

Query :: Now this one: Cc1ccc(NC(=O)Cn2ncc(Cl)c(Cl)c2=O)cc1S(=O)(=O)N1CCN(C)CC1
Result :: 72
